What TGI was measured for each of the following?
system: DLD-1 colon; assay: NCI tumour cell line growth inhibition, 48 h

Consider the worked cases shown below.
Cc1nc(N)c(-c2ccccc2)s1 ... > 100 µM
C[C@@]1(Cc2ccccc2)C(=O)N2[C@@H](CO)C(c3ccccc3)O[C@]2(C)c2ccccc21 (some centres undefined) ... > 100 µM
Nc1nnc(CCC(=O)Nc2cc(Cl)ccc2Cl)n1N ... > 100 µM

In the following, a different molecule is considered.
CC(=O)[CH-]C(=O)c1ccccc1.CC(=O)[CH-]C(=O)c1ccccc1.CC(C)CCC[C@H](C)C1CCC2[C@@H]3CC=C4C[C@@H]([O-])CC[C@]4(C)C3CC[C@@]21C.CC(C)CCC[C@H](C)C1CCC2[C@@H]3CC=C4C[C@@H]([O-])CC[C@]4(C)C3CC[C@@]21C.Cl.[Ti+4] (some centres undefined) tested on DLD-1 colon gave TGI: > 25 µM

* * *

test system: NCI-H226 lung; experiment: NCI tumour cell line growth inhibition, 48 h
Would you kindly list GI50 for each of these compounds?

COc1cccc(C2=C(c3cn(C)c4cc(F)ccc34)C(=O)NC2=O)c1 ... > 18.8 µM
COc1ccc(Cl)cc1Nc1nc(C(F)(F)F)ccc1C(=O)N/N=C/c1cccnc1 ... 3.49 µM
CC(C)(C)NC(=O)[C@H]1CC[C@H]2[C@@H]3CC[C@H]4NC(=O)C=C[C@]4(C)[C@H]3CC[C@]12C ... > 100 µM
Cc1ccc(NC(=O)Nc2c(Cl)cccc2Cl)cn1 ... > 100 µM

Now for a further compound.
Notebook: CCOC(=O)/C(C#N)=C1\SS/C(=C(/C#N)C(=O)OCC)S1 , GI50 read as 19.6 µM

* * *

system: A549 NSCLC; test: NCI tumour cell line growth inhibition, 48 h
quantity_name: TGI

See these solved cases before continuing.
NC(Cc1c[nH]c2ccc(F)cc12)C(=O)O (stereo not drawn) ... > 2500 µM
COc1cc(C2c3[nH]c4ccccc4c3[C@@H](Nc3ccc(C#N)cc3)[C@H]3COC(=O)N23)cc(OC)c1O (stereo partly drawn) ... 0.421 µM
CCOCC(=O)N(C)c1cccc2c3c(n(C)c12)CCCCC3 ... > 100 µM

The following compounds each have a reported value; give each one's TGI.
1. Cc1cc(=O)n(-c2c(C)cccc2Cl)c(/C=C(\O)c2ccncc2)n1
2. Cc1ccc(-c2nc(N3CCNCC3)c3oc(-c4ccccc4)nc3n2)cc1
3. CC1=C[C@@H](C)C[C@]2(C)CC[C@H](O2)[C@]23CC[C@](CO)(C[C@H](O2)[C@@H]2O[C@@](C)(CC2=O)[C@@H](O)[C@H]2CC[C@@]4(CCC[C@@H](O4)[C@H](C)C(=O)O[C@H]4C[C@H]([C@]5(O)OCC[C@H](C)[C@@H]5O)O[C@H]4C=C1)O2)O3
4. N=c1ccc2nc(N)nn(O)c-2c1

# output
1: > 100 µM; 2: 3.13 µM; 3: > 10 µM; 4: > 100 µM

Entry O=S(=O)(c1ccccc1)N1CN2CN(C1)CN(S(=O)(=O)c1ccccc1)C2 ; TGI = > 100 µM

* * *

Task for the reader: assign each of the following molecules its reported TGI.
tested on: SR leukemia; assay: NCI tumour cell line growth inhibition, 48 h

// below: answered molecules
O=C1C2Cc3c(n(C(=O)c4ccccc4)c4ccccc34)CC2C(=O)N1c1ccc(Nc2ccc(N3C(=O)C4Cc5c(n(C(=O)c6ccccc6)c6ccccc56)CC4C3=O)cc2)cc1 (stereo not given) ... > 100 µM
O/C(=C\c1nc2ccccc2nc1/C=C(\O)c1ccc(F)cc1)c1ccc(F)cc1 ... > 100 µM
COc1cc(/C=C/c2ccc(Br)cc2)cc(OC)c1OC ... > 100 µM
COc1cccc(/C=N/[N-]C(N)=O)c1[O-].[Ni+2].[OH3+] ... 2.64 µM

Here is the next item to consider.
Notebook: Clc1ccc(OCc2nnc3n2N=C(c2ccc(Br)cc2)CS3)cc1 , TGI read as > 100 µM

* * *

Consider the following compounds; for each one, report its TGI.
test system: HCT-15 colon; assay: NCI tumour cell line growth inhibition, 48 h

Some solved cases for reference:
CCN(CC)CCCNc1ccc([N+](=O)[O-])c2nc3ccc(OC)cc3c(N)c12 ... 3.15 µM
CCN(CC)c1ccc(C2NC(=O)c3ccccc3N2)cc1 (configuration not stated) ... > 100 µM
CCCCN=C(N)c1ccc(N2CCCN(c3ccc(C(N)=NCCCC)cc3)CC2)cc1 ... > 100 µM

The following compounds each have a reported value; give each one's TGI.
1. CCc1cc2c(c3c1CCCC3)CC1(Cc3ccc(C(=O)OC)cc3C1)C2 (configuration not stated)
2. CN(C)/C=N\c1nncc2[nH]cnc12
3. COC(=O)C1CC23C4=C(CCC41)CCC1CN4CC(C)C(CC(OC(C)=O)C12COC(C)=O)C43O (configuration not stated)
4. COC(=O)c1nn2ccc3ccccc3c2c1C(=O)OC
5. Cc1cc(C)c2c(c1)N[S@@](=O)S2
6. CCOC(=O)c1nc2ccccc2nc1Oc1ccc(C#N)cc1
7. c1ccc(-c2c3c(nc4c2CC[C@H]4NC2=NCCN2)[C@@H](NC2=NCCN2)CC3)cc1

# output
["> 100 µM", "> 100 µM", "> 100 µM", "> 100 µM", "33 µM", "> 100 µM", "> 100 µM"]

Dear colleague, could you please provide TGI for the compounds listed below?
1. COc1cccc(C2=C(c3cn(C)c4cc(F)ccc34)C(=O)NC2=O)c1
2. CCOc1ccc2c(c1)CN(Cc1ccc(Cl)cc1)CO2
3. COc1ccc(-c2nn(-c3ccc(NC(=O)c4cc(Cl)cc(Cl)c4)cc3)cc2-c2ccncc2)cc1Cl
4. C[C@@H]1CCC2C(C)(C)C(/C=C\C=O)C3(C)OC213 (some centres not stated)

# output
["> 25 µM", "34.1 µM", "> 100 µM", "> 100 µM"]

For the 8 compounds below, give their TGI values.
1. CN(C)C=NC1CCC(C(C)(C)C)CC1 (configuration not stated)
2. O=C(Nc1ccccc1C(F)(F)F)c1ccc(NC2=C(Cl)C(=O)N(Cc3ccccc3)C2=O)cc1
3. CC1(C)S[C@H](CN)N[C@H]1C(=O)OC(c1ccccc1)c1ccccc1
4. COc1ccc(NC(=O)CC(=O)NNC(Sc2ccccc2)c2cc(N=Nc3ccc(Br)cc3)ccc2O)cc1 (configuration not stated)
5. CCN(CC)C(=S)SC1C(=O)NC(=O)NC1=O
6. CCOC(=O)c1nc2ccccc2nc1Nc1ccc(OC)cc1
7. O=C(Nc1ccc(-n2ccc3c(NC(=O)c4ccccc4)nccc32)cc1)Nc1cccc(C(F)(F)F)c1
8. ClCc1ccc(Cn2cnc3c(Cl)ncnc32)cc1

# output
1. 32.8 µM
2. > 100 µM
3. > 100 µM
4. > 10 µM
5. > 100 µM
6. > 100 µM
7. 6.55 µM
8. > 36.7 µM

* * *

system: SK-OV-3 ovarian; assay: NCI tumour cell line growth inhibition, 48 h
Please provide measured TGI for the entries that follow.

# batch size: 4; output TGI per entry
1. C[C@@]1(Cc2ccccc2)C(=O)N2[C@@H](CO)C(c3ccccc3)O[C@]2(C)c2ccccc21 (some centres undefined)
2. CCOc1ccc2c(c1)CN(Cc1ccc(Cl)cc1)CO2
3. CCOC(=O)C(/C(=N\NC(=O)OC)C(=O)Nc1cc(OC)ccc1OC)c1cnc2ccccc2n1 (centres undefined)
4. C=C1C(=O)O[C@H]2[C@H]1CC/C(Cn1cc(-c3cccc(Cl)c3)nn1)=C\CC[C@@]1(C)O[C@@H]21

# output
1: > 100 µM; 2: > 100 µM; 3: > 100 µM; 4: 11.2 µM

* * *

system: 786-0 renal; experiment: NCI tumour cell line growth inhibition, 48 h
quantity_name: TGI

# annotated cases, reported TGI shown
CCN(CC)C(=S)SC1C(=O)NC(=O)NC1=O ... > 100 µM
COC1[C@H](NC(=O)OC(C)(C)C)C(=O)N1Cc1ccccc1 (some centres undefined) ... > 100 µM
CCCCNC(=NCc1ccccc1)NC#N ... > 100 µM
C/C(=N/O)c1ccc2c(c1)/C(=N/O)c1ccccc1-2 ... 38.5 µM
COc1ccccc1-n1c(NN)nc2ccc(Br)cc2c1=O ... > 100 µM

Give measured TGI for every item shown.
1. COc1cc(C2c3[nH]c4ccccc4c3[C@@H](Nc3ccc(C#N)cc3)[C@H]3COC(=O)N23)cc(OC)c1O (some centres undefined)
2. Cc1cccc(/C=N\NC(=S)N2CCCCC2)n1
3. Oc1cc(CN2CCOCCOCCOCCOCC2)c(O)cc1CN1CCOCCOCCOCCOCC1
4. C[C@@H](NC(=O)c1ncnc(N)c1Cl)c1ncc(C(=O)Nc2cc(C(F)(F)F)c(Cl)cn2)s1
5. O=C(O)c1c(Cl)c(Cl)c(Cl)c(Cl)c1C(=O)Nc1ccc2cn[nH]c2c1

# output
0.337 µM
20.8 µM
58.5 µM
> 100 µM
> 100 µM

Give TGI for each of the items listed below.
1. ClCc1ccc(Cn2cnc3c(Cl)ncnc32)cc1
2. O=C(CO[N+](=O)[O-])OC/C=C/c1ccccc1
3. CCOC(=O)c1nc2ccccc2nc1Nc1ccc(OC)cc1
4. Nc1ncnc2c1ncn2-c1ccc([N+](=O)[O-])cn1

# output
["> 20 µM", "> 100 µM", "> 100 µM", "> 100 µM"]

# batch: return TGI for each of the 6 compounds below
1. COc1cc(/C=C/C(=O)/C=C/c2cc3ccc(Cl)cc3n(Cc3ccccc3)c2=O)ccc1O
2. CCOC(=O)C(NO)C(Sc1ccccc1)c1ccc(OC)cc1 (centres undefined)
3. COc1cc(/C=N/c2ccccn2)cc(OC)c1OC
4. CC(=O)C1(C)CC(C#N)(C#N)C(C#N)=C1N (centres undefined)
5. COc1cc(/C=C/c2ccc(Br)cc2)cc(OC)c1OC
6. OCCCSCCO

# output
1. 3.58 µM
2. > 100 µM
3. > 100 µM
4. > 100 µM
5. 52.9 µM
6. > 100 µM

Count: 7. Required value per item: TGI.
1. CCOC(=O)C(/C(=N\NC(=O)OC)C(=O)Nc1cc(OC)ccc1OC)c1cnc2ccccc2n1 (centres undefined)
2. Cc1ccc(OCC2=NC3S/C(=C/c4ccc([N+](=O)[O-])o4)C(=O)N3N2)cc1 (centres undefined)
3. COc1cc(-c2ccc(NC(=O)SCCC(=O)O)cc2OC)ccc1NC(=O)SCCC(=O)O
4. CCN(CC)CCCNc1ccc([N+](=O)[O-])c2nc3ccc(OC)cc3c(N)c12
5. CCN(CC)c1ccc(C2NC(=O)c3ccccc3N2)cc1 (centres undefined)
6. N#Cc1ncn(CCO)c1N
7. O=C(Cn1c(=O)oc2ccc(C(=O)c3ccc(F)cc3)cc21)c1ccccc1

# output
1: > 100 µM; 2: 23.7 µM; 3: > 100 µM; 4: 2.9 µM; 5: > 41.2 µM; 6: > 100 µM; 7: > 100 µM

Record TGI per entry; entries follow.
1. CCN(CC)c1ccc2nc3c4ccccc4c(=O)cc-3n(-c3ccccc3)c2c1
2. COc1ccc(NC(=O)CC(=O)NNC(Sc2ccccc2)c2cc(N=Nc3ccc(Br)cc3)ccc2O)cc1 (centres undefined)

# output
1: 8.86 µM; 2: > 10 µM
